Test: soluble fraction after stress (log2 fold change); higher = more stays soluble; pooled small domains, quantitative proteomics
Details: stress: pH 4
property: soluble fraction (log2)
Answers are plain numbers.

Worked examples follow.
sequenceinput=HMQKIYTIARGDTLSHIVAGTLKQQGIAYTTGELYRLVNVVAQYNDILNPNRIYTGHQLDLTPLYSED resultvalue=-0.434
sequenceinput=HMNPLPALLRYFRQKAGLTQQDVAAALSISRSGYANYEEGRNIPNIEQAIKLSELLNHDFLYAYTLSS resultvalue=-0.749
sequenceinput=HMLTAPMPGIVRQVNVDTGQKVRKGQPLMVLEAMKMEHQIIAPQAGKIEAIHYNEGDRVEMGSVLISIF resultvalue=-0.538
sequenceinput=HMRQQSLHSLYRDHHSWLQNWLRRQLGNTWDAADLSQDTFIKVLASSQSVAEIREPRAYLLTVGKRL resultvalue=-0.0586
sequenceinput=HMVNSIQIHKKLRLDKRAGSDNWYARLTLPNGKRLVKTTKTEDIETAKEVALRLYYEVDARIQNKLPAT resultvalue=-0.158

Go through the items and report each one's soluble fraction (log2).
1. HMSDIIVQGNRRLDTDLIITDSQIREIGTDEKSLSLAVKNLYKTGYFENVQIFKDNSVVFINVKENQ
2. HMNPKTELMVYLKKRDEWVASQILSDVLQVSTRTIRKFVKEINMDYQTENVILSSSKGYKLNQNLLSSL
3. HMDPPYKDKNLHELLLKINNLNILKKDSVIILHRHKKQKEIFPSNFKIIEQKQYGISKIIFLTVL
4. HMVAGHLQTKKGYYYIVLNMRTDTGARKTKWIATGIPEGGKKNLKQAEELLAKTRYTYEDMVI
5. HMTSNSLNLKDEISAFLTKNAGISYSAERIAHALNMDNADQFTPIIQTLAQLEREKKVRVTDKGEFEAVIK
6. HMTALSAREHEVLQLITRGYTADEIAAMLQISRHTALTYVRRIYSKLKVNSKAEAIFEVRQR
7. HMTKASEELYFRLKEELGTGVIVEHKKYGEGVVTQLDDRLVHIMFQDDTLRMMDLKILANAGLLKVK

A:
1. -0.358
2. -0.281
3. 0.217
4. 0.0939
5. 0.229
6. -0.215
7. -1.87

Go through the items and report each one's soluble fraction (log2).
1. HMGAVQFAEQKIHIGSRWIGKKISEFSAESDAFVILIKRGSEVVIPRGPTDIVENDVLVIHVPD
2. HMIFELDSDRASAGNTIGKLVSKWNNTEVASVQFVSGDDTSNKDNASIYLNTRSGGSGNLVRLRITK
3. HMSVETSDLLPLIEQVLSLNPDKVKEYQNGKKGLLGFFMGQIKQTAGVAIDVGTLKPLLEDALHKDL
4. HMKLISVAVMRASDAAEIAGGTDSKTLMYRAGLGLFQSWDWHGKIDIVTGSGNNAGDGYVLALLL

A:
1: -1.8; 2: 0.108; 3: -1.06; 4: -0.548

Where these numbers come from: the domain aggregation screens of Martell et al. (2025)
